Entry smiles: CS(=O)(=O)c1ccc(-c2nc(C(F)(F)F)nc(Cl)c2-c2ccc(S(=O)(=O)Cl)cc2)cc1
melting point: 207 to 210 °C
//
Entry smiles: CCn1cnc2c(Nc3cccc(C#N)c3)nc(Cl)nc21
melting point: 189 °C
//
Entry smiles: C=C(C)CONC(=O)c1nc(-c2ccc(Cl)c(OC)c2F)cc(N)c1Cl
melting point: 147 to 149 °C
//
Entry smiles: CCOC(=O)CCCn1cc(C(=O)O)c2nc3c(C)cccc3cc2c1=O
melting point: 186 to 188 °C
//
Entry smiles: C=CCN(CCC)S(=O)(=O)NC(=O)c1cc(N=C=S)c(F)cc1Cl
melting point: 83 to 85 °C
//
Entry smiles: Cc1ccc(N2CCN(Cc3ccc4ccc(=O)oc4c3)CC2)cc1
melting point: 154 to 155 °C
//
Entry smiles: CC=CC(=O)Nc1cccc(OC(=O)Nc2ccc(Cl)c(Cl)c2)c1
melting point: 193 to 194 °C
//
Entry smiles: N#Cc1c(N2CCN(C(=O)c3ccco3)CC2)c2cc(Cl)ccc2n(Cc2ccccc2)c1=O
melting point: 221 °C
//
Entry smiles: CN(C)CCCn1c2ccc(O)cc2c2c3c(c(-c4ccccc4)cc21)C(=O)NC3=O
melting point: 185 to 189 °C

* * *

# reported melting point; entries follow

Compound: COc1cc(OC)c2c(=O)[nH]c(-c3ccc(OC4CCN(C(=O)N(C)C)CC4)cc3)nc2c1
melting point: 248 to 249 °C
--
Compound: O=S(=O)(c1ccc2ccccc2c1)N1C[C@@H](S)C[C@@H]1COCc1ccccc1
melting point: 79 to 80 °C
--
Compound: CCOC(=O)C1=C(C)NC(C)=C(C(=O)OCC)C1c1ccccc1O
melting point: 159 to 161 °C
--
Compound: CC1(C)CC(=O)CC(C)(P(=O)(O)O)C1 (stereo not given)
melting point: 167 to 168 °C
--
Compound: COc1cccc2c(O)c(C)c(C)nc12
melting point: > 290 °C
--
Compound: COC(=O)c1ccc(-c2ccc(-c3ccccc3)c(-c3ccc4c(c3)C(C)(C)CCC4(C)C)c2)cn1
melting point: 160 to 162 °C
--
Compound: NC(Cc1noc2ccccc12)=NO
melting point: 160 to 162 °C
--
Compound: Fc1ccc(-c2cn(CCC#Cc3ccccn3)nn2)cc1
melting point: 120 to 122 °C
--
Compound: CNc1scc(C)c1C(=O)c1ccccc1
melting point: 144 to 145 °C
--
Compound: Cc1c(C(=O)OC(C)(C)C)c(O)cc2c1C(=O)c1c(O)cccc1C2=O
melting point: 207 °C
--
Compound: Nc1cc(Cl)cc(NCCO)c1[N+](=O)[O-]
melting point: 183 °C
--
Compound: CC(=O)OC1C(N(C)S(C)(=O)=O)c2cc(OCc3ccccc3)ccc2OC1(C)C (stereo not given)
melting point: 124 to 125 °C
--
Compound: CCc1ccc(C#CC(C)N(O)C(N)=O)cc1 (stereo not given)
melting point: 142 to 144 °C
--
Compound: CNC(=O)C1OC(n2cnc3c(NCc4cc(Cl)ccc4OCc4cc(C)no4)ncnc32)C(O)C1NC(=O)OC(C)(C)C (stereo not given)
melting point: 135 to 137 °C
--
Compound: O=C1c2cccc3cc4ccccc4c(c23)C(=O)N1CCN1CCCN(CCN2C(=O)c3cccc4cc5ccccc5c(c34)C2=O)C1
melting point: 222 °C
--
Compound: CCOc1c(C(=O)O)oc2c3ccccc3n(-c3ccccc3)c12
melting point: 146 to 147 °C
--
Compound: CC(=O)NC[C@H]1CN(c2ccc(N3CC(C)(O)C3)c(F)c2)C(=O)O1
melting point: 152 to 153 °C
--
Compound: CCCCCCNC(=O)OCc1ccc(CNC(=O)OC2CCN(C(=O)Oc3ccc(Oc4ccccc4)cc3)CC2)cc1
melting point: 116 to 118 °C
--
Compound: CCCCCCCCc1ccc(CCC(COC(C)=O)(COC(C)=O)NC(C)=O)cc1
melting point: 112 °C
--
Compound: O=C(Nc1ccc2c(c1)OCO2)N1Cc2ccccc2C1
melting point: 165 to 166 °C

* * *

Quantity name: melting point

Molecule: CCCCCCC(C)Oc1ccc(C(=O)O)cc1C#N (stereo not given)
Test result: 98.1 to 99.9 °C

Molecule: Cc1ccc(-c2ccc(C(=O)Nc3ccc4nc(CN(C)C)ccc4c3)cn2)cc1
Test result: 220 to 222 °C

Molecule: O=C(c1cc(N2CCC(F)(F)CC2)ccn1)N(O)Cc1ccccc1
Test result: 90 to 95 °C

Molecule: COc1ccc(-c2nnc3c4ccccc4c(OCCCCO)nn23)cc1
Test result: 180 to 182 °C

Molecule: N#Cc1cnn(C2CCCCC2)c1N
Test result: 99 to 103 °C

Molecule: COc1ccn2c(Cl)c(CCc3ccc4nc(N)oc4c3)nc2c1
Test result: 225 to 227 °C

Molecule: CCOC(=O)c1cnc2ccc(-c3ccc(Cl)cc3)cn12
Test result: 130 °C

Molecule: Cc1nc(C(=O)c2[nH]c3ccc(Cl)cc3c2CC(=O)O)c[nH]1
Test result: 237 to 238 °C

Molecule: O=C(O)Cc1cnn(-c2ccccc2)c1-c1ccc(Cl)cc1
Test result: 185 to 186 °C

Molecule: Cc1cccc(CC(=O)N[C@H]2C[C@H](C(=O)O)Nc3cc(Cl)cc(Cl)c32)c1 (relative stereo)
Test result: 169 to 171 °C

Molecule: COc1ccc(-n2nc(C)cc2-c2ccccc2)cc1
Test result: 110 °C

Molecule: CC(N)=Nc1ccc(Cl)cc1Cc1ccccc1F
Test result: 115 to 119 °C

Molecule: CN(C)CCCNC(=O)c1ccc(-c2ccc3nnn(Cc4ccc5ncccc5c4)c3n2)cc1F
Test result: 148 to 150 °C

Molecule: CCOC(=O)C(CCC#N)(C(=O)OCC)c1ncc([N+](=O)[O-])cc1C
Test result: 64 to 65.5 °C

Molecule: CC(C(N)=O)c1ccc2c(c1)C(=O)Cc1cc(F)ccc1S2 (stereo not given)
Test result: 224 to 225 °C

Molecule: CC(C)=CCN1CC(NC(=O)Nc2cccc(C(=O)O)c2)C(=O)N(CC(=O)c2ccccc2C)c2cc(C)ccc21 (stereo not given)
Test result: 129 to 131 °C

Molecule: CS(=O)(=O)NNC(=O)c1nc(CS(=O)(=O)c2ccc(Cl)cc2)no1
Test result: 198 to 202 °C

Molecule: COc1cccc(C23CCCC(C2)NC3=O)c1 (stereo not given)
Test result: 109 to 111 °C

Molecule: CCCCc1nn(-c2cc(NC(=O)COCC)ccc2Cl)c(=O)n1Cc1ccc(-c2ccccc2S(=O)(=O)NC(=O)OC(C)(C)C)cc1F
Test result: 100 to 102 °C

Molecule: COc1cc2c(cc1OC)CN(CC(O)COc1ccc(N)cc1)CC2 (stereo not given)
Test result: 106 °C

* * *

# reported melting point; entries follow

Compound: CCCN(CCC)C(=O)CNc1nc(-c2ccccc2)nc(C)c1C
melting point: 79 to 80 °C
--
Compound: COc1cc(C(=O)c2ccc(C(F)(F)F)cc2)cc([N+](=O)[O-])c1O
melting point: 172 °C
--
Compound: Fc1cccc(F)c1-c1cnc(-c2ccc(-c3ccc(OC(F)(F)F)cc3)cc2)nn1
melting point: 199 to 202 °C
--
Compound: COc1ccc(-c2c(NC(=O)Nc3ccc(F)cc3F)cnc3ccc(Cl)cc23)c(O)c1OC
melting point: 218 to 220 °C
--
Compound: O=C(c1ccc(Cl)cc1)c1noc(CS(=O)c2ccccc2)n1 (stereo not given)
melting point: 93 to 95 °C
--
Compound: COC(=O)CCC(=O)c1cc(OC)ccc1OCC1CO1 (stereo not given)
melting point: 50 to 51.5 °C
--
Compound: N#Cc1ncccc1CCc1cccc(Cl)c1
melting point: 72 to 73 °C
--
Compound: NC(=O)C(Sc1nc2cc(Cl)ccc2s1)c1ccccc1 (stereo not given)
melting point: 181 to 183 °C
--
Compound: CC1CN(C(=O)OC(C)(C)C)CCC1(O)c1cc(C(F)(F)F)cc2ccoc12 (stereo not given)
melting point: 133 to 136 °C
--
Compound: O=C1Nc2ccncc2Oc2ccccc21
melting point: 253 to 254 °C

* * *

# reported melting point; entries follow

Molecule: CC(C)(C)c1cc(SCCC(=O)N2CCN(Cc3ccccc3)CC2)cc(C(C)(C)C)c1O
melting point: 92.5 to 95 °C

Molecule: COC(C)c1cc([N+](=O)[O-])ccc1C (configuration not stated)
melting point: 35 to 37 °C

Molecule: CC(C)(C)OC(=O)N1CCC(=O)N(CCCC=O)CC1
melting point: 86 to 87 °C

Molecule: OC1CCc2c(-c3cccs3)cccc21 (configuration not stated)
melting point: 101 to 104 °C

Molecule: C=C(C)COc1cc(Cl)ccc1[N+](=O)[O-]
melting point: 47 to 49 °C

Molecule: c1ccc(CN2CCN(Cc3n[nH]c4ccccc34)CC2)cc1
melting point: 130 to 131 °C

Molecule: CC(=C(C#N)C(=O)Nc1ccccc1C(C)C)N(C)C
melting point: 74 to 78 °C

Molecule: CN(C)c1ccc(OCc2ccncc2)cc1
melting point: 123 to 125 °C

Molecule: O=C(O)CC1=C(c2ccccc2)c2ccccc2OC1
melting point: 147 to 149 °C

Molecule: CN(C)c1cccc2c1C1=NCCN1c1c(-c3noc(C4CC4)n3)ncn1-2
melting point: 148 to 150 °C

Molecule: CCONC(=O)c1cccc(-c2nc3ccccc3c(=O)o2)c1
melting point: 179 to 183 °C

Molecule: COc1cc(S(=O)(=O)c2ccncc2)ccc1NC(=O)C(C)(O)C(F)(F)F (configuration not stated)
melting point: 220 to 222 °C

Molecule: COc1cc(C=C2CCCOC2CN)c([N+](=O)[O-])cc1OC (configuration not stated)
melting point: 89 to 96 °C

Molecule: COc1ccc(CC=[N+]([O-])C(C)(C)C)cc1
melting point: 90 to 91 °C

Molecule: CC1=C(C#N)C(c2cncc3ncc(-c4ccccc4)cc23)C(C(=O)OC(C)C)=C(C)N1 (configuration not stated)
melting point: 192 °C

Molecule: C=CCc1c(OC(C)=O)c(C)cc2ccc(=O)oc12
melting point: 110 to 111 °C

Molecule: CC(C)(C(O)c1ccc2c(c1)OCO2)[N+](=O)[O-] (configuration not stated)
melting point: 88 to 91 °C

Molecule: CC1CC(n2cncc2C(=O)O)c2ccccc21 (configuration not stated)
melting point: 209 °C

Molecule: CC(C)c1ccc2nc3ccc(C(=O)NCCc4cccnc4)cn3c(=O)c2c1
melting point: 283 to 292 °C

Molecule: Nc1ccc(C(=O)c2ccccc2)c(Br)c1
melting point: 157 to 160 °C

Molecule: CN(Cc1ccccc1)c1ncnc2c(N3CCOCC3)nc(N3CCC(N(C)C)CC3)nc12
melting point: 98 °C

Molecule: COc1ccc([N+](=O)[O-])c(OCC(N)=O)c1
melting point: 185 to 187 °C
